# assay.remarks: Ability to displace [3H]flunitrazepam ([3H]-FNP) binding to mouse brain after intraperitoneal administration at a dose 320 umol/kg
# Format: functional, organism-based
# measurement.setup: at 320 µmol/kg
readout.label: [3H]flunitrazepam binding (%)

| structure.notation | readout.label | reading |
| --- | --- | --- |
| O=C1/C(=C\N2CCOCC2)c2ccccc2N1c1cccc(Cl)c1 | [3H]flunitrazepam binding | 121 |
| CN(/C=C1\C(=O)N(c2cccc(Cl)c2)c2ccccc21)c1ccccc1 | [3H]flunitrazepam binding | 133 |
| CN(C)/C=C1\C(=O)N(c2cc(Cl)ccc2Cl)c2ccccc21 | [3H]flunitrazepam binding | 147 |
| COc1ccc(N2C(=O)/C(=C\N(C)C)c3ccccc32)cc1Cl | [3H]flunitrazepam binding | 244 |
| CN(C)/C=C1\C(=O)N(c2cccc(C#N)c2)c2ccccc21 | [3H]flunitrazepam binding | 192 |
| O=C1/C(=C\N2CCCCC2)c2ccccc2N1c1cccc(Cl)c1 | [3H]flunitrazepam binding | 131 |
| Cc1cccc(N2C(=O)/C(=C\N(C)C)c3ccccc32)c1 | [3H]flunitrazepam binding | 184 |
| COc1ccc(Cl)cc1N1C(=O)/C(=C\N(C)C)c2ccccc21 | [3H]flunitrazepam binding | 149 |
| COc1ccc(N2C(=O)/C(=C\N(C)C)c3ccccc32)cc1 | [3H]flunitrazepam binding | 153 |
| N=Cc1c(O)n(-c2cccc(Cl)c2)c2ccccc12 | [3H]flunitrazepam binding | 134 |
| C/N=C\c1c(O)n(-c2cccc(Cl)c2)c2ccccc12 | [3H]flunitrazepam binding | 119 |

###

# Tested on: P23576
# Sequence (P23576 whole entry): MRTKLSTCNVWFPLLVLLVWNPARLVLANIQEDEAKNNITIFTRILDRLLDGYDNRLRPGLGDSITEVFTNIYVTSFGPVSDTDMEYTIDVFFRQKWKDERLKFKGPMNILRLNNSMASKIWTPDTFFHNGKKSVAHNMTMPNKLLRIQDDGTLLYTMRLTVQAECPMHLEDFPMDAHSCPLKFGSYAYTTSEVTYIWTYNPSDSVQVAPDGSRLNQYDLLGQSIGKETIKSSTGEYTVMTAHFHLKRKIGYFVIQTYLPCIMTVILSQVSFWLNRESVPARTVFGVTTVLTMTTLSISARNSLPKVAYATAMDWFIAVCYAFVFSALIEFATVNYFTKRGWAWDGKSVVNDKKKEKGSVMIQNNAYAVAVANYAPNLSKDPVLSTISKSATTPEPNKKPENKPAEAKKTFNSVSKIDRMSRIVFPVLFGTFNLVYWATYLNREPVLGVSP
# assay.remarks: Administered at a dose 320 umol/kg intraperitoneally before [3H]Flunitrazepam ([3H]-FNP) in mouse brain expressed as percent of control
# Format: functional, tissue-based
Measured Control values are reported for all entries that follow.
readout.label: Control (%)

| structure.notation | readout.label | reading |
| --- | --- | --- |
| CN1CCC/C1=C1/C(=O)N(c2cccc(Cl)c2)c2ccccc21 | Control | 192 |
| CN(C)C(=O)c1cccc(N2C(=O)/C(=C3/CCCN3C)c3ccccc32)c1 | Control | 164 |
| COc1cccc(N2C(=O)/C(=C3/CCCN3C)c3ccccc32)c1 | Control | 214 |
| CN1CCC/C1=C1/C(=O)N(c2ccccc2)c2ccccc21 | Control | 143 |
| O=C1/C(=C2/CCCN2Cc2ccccc2)c2ccccc2N1c1cccc(Cl)c1 | Control | 149 |
| COc1ccc(N2C(=O)/C(=C3/CCCN3C)c3ccccc32)cc1Cl | Control | 220 |
| CN1CCC/C1=C1/C(=O)N(c2cccc(C#N)c2)c2ccccc21 | Control | 121 |
| CN1CCC/C1=C1/C(=O)N(c2ccccc2)c2cc(Cl)ccc21 | Control | 158 |
| CN1CCCC/C1=C1/C(=O)N(c2cccc(Cl)c2)c2ccccc21 | Control | 135 |
| O=C1/C(=C\n2ccnc2)c2ccccc2N1c1cccc(Cl)c1 | Control | 139 |
| O=C1/C(=C2/CCCN2c2ccccc2)c2ccccc2N1c1cccc(Cl)c1 | Control | 125 |
| COc1ccc(N2C(=O)/C(=C3/CCCN3C)c3ccccc32)cc1F | Control | 225 |
| CN1CCC/C1=C1/C(=O)N(c2cccc(Cl)c2)c2cc(Cl)ccc21 | Control | 189 |
| CN1CCC/C1=C1/C(=O)N(c2ccc(Cl)cc2)c2ccccc21 | Control | 127 |
| Oc1c(C2=NCCCCC2)c2ccccc2n1-c1cccc(Cl)c1 | Control | 138 |
| CN1CCC/C1=C1/C(=O)N(c2ccccc2)c2cccc(Cl)c21 | Control | 190 |
| CCN1CCC/C1=C1/C(=O)N(c2cccc(Cl)c2)c2ccccc21 | Control | 164 |
| COc1ccc(N2C(=O)/C(=C3/CCCN3C)c3ccccc32)cc1 | Control | 211 |
| O=C1/C(=C2/CCCN2Cc2ccc(Cl)cc2)c2ccccc2N1c1cccc(Cl)c1 | Control | 131 |
| CN(/C=C1\C(=O)N(c2cccc(Cl)c2)c2ccccc21)Cc1ccccc1 | Control | 135 |

###

# assay.remarks: Toxicity was measured in mouse by intraperitoneal administration; value ranges from 3.2-10
# measurement.setup: in vivo, ip
readout.label: LD50

| molecule | reading |
| --- | --- |
| NCc1cc(O)no1 [MUSCIMOL] | 3.2 mg/kg |

###

# assay.remarks: Ability to displace [3H]flunitrazepam ([3H]-FNP) binding to mouse brain after intraperitoneal administration at a dose 320 umol/kg
# Assay type: functional, organism-based
# measurement.setup: at 320 µmol/kg
We label by threshold. Values of [3H]flunitrazepam binding strictly beneath 200% are Satisfied. Values of 200% and up are Not satisfied.

| structure.notation | category.label |
| --- | --- |
| CN(C)/C=C1\C(=O)N(c2ccc(Cl)c(Cl)c2)c2ccccc21 | Satisfied |
| COc1ccc(N2C(=O)/C(=C(/C)N(C)C)c3ccccc32)cc1F | Satisfied |
| CN(C)/C=C1\C(=O)N(c2cccc(Cl)c2)c2c(Cl)cccc21 | Satisfied |
| COc1cccc(N2C(=O)/C(=C\N(C)C)c3ccccc32)c1 | Not satisfied |
| CN(C)/C=C1\C(=O)N(c2cc(Cl)cc(Cl)c2)c2ccccc21 | Satisfied |
| CC(=N)c1c(O)n(-c2cccc(Cl)c2)c2ccccc12 | Satisfied |
| CN(C)/C=C1\C(=O)N(c2cccc(C(F)(F)F)c2)c2ccccc21 | Satisfied |
| C/C(=C1/C(=O)N(c2ccccc2)c2cc(Cl)ccc21)N1CCCC1 | Not satisfied |
| COc1ccc(N2C(=O)/C(=C\N(C)C)c3ccccc32)cc1OC | Satisfied |
| CN(C)/C=C1\C(=O)N(c2cccc([N+](=O)[O-])c2)c2ccccc21 | Satisfied |

###

# assay.remarks: Toxicity was measured in mouse by intraperitoneal administration; value ranges from 32-100
# measurement.setup: in vivo, ip

| structure.notation | LD50 (mg/kg) |
| --- | --- |
| COc1ccc(N2C(=O)/C(=C3/CCCN3C)c3ccccc32)cc1Cl | 32 |

###

# test.target: GABA-A receptor; anion channel (Rattus norvegicus) (UniProt O09028+P15431+P18506+P18508+P19969+P20236+P23574+P23576+P28471+P28473+P30191+P62813+P63079+P63138+Q91ZM7+Q9ES14)
# assay.remarks: Antagonism of mercaptopropionic acid (MPA) induced convulsions in mouse
# Assay type: functional, organism-based
Measured ED50 values are reported for all entries that follow.
readout.label: ED50

| compound | readout.label | reading |
| --- | --- | --- |
| CN(C)/C=C1\C(=O)N(c2ccc(Cl)cc2)c2ccccc21 | ED50 | > 100 mg/kg |
| COc1ccc(Cl)cc1N1C(=O)/C(=C\N(C)C)c2ccccc21 | ED50 | > 100 mg/kg |
| CN(C)/C=C1\C(=O)N(c2cc(Cl)cc(Cl)c2)c2ccccc21 | ED50 | > 100 mg/kg |
| CN(C)/C=C1\C(=O)N(c2cccc(C(F)(F)F)c2)c2ccccc21 | ED50 | 22.2 mg/kg |
| C/C(=C1/C(=O)N(c2ccccc2)c2cc(Cl)ccc21)N1CCCC1 | ED50 | > 56 mg/kg |
| CN1CCC/C1=C1/C(=O)N(c2ccc(Cl)cc2)c2ccccc21 | ED50 | > 56 mg/kg |
| CCCN(/C=C1\C(=O)N(c2cccc(Cl)c2)c2ccccc21)CCC | ED50 | > 100 mg/kg |
| CCCC(CCC)C(=O)[O-].[Na+] [VALPROATE SODIUM] | ED50 | 212 mg/kg |
| CCC/N=C/c1c(O)n(-c2cccc(Cl)c2)c2ccccc12 | ED50 | > 56 mg/kg |
| COc1ccc(-n2c(O)c(C3=NCCC3)c3ccccc32)cc1F | ED50 | 56 mg/kg |
| CN(C)/C=C1\C(=O)N(c2cccc(O)c2)c2ccccc21 | ED50 | > 100 mg/kg |
| CN1CCC/C1=C1/C(=O)N(c2ccccc2)c2cccc(Cl)c21 | ED50 | > 100 mg/kg |
| C/C(=C1/C(=O)N(c2cccc(C)c2)c2ccccc21)N(C)C | ED50 | 17.8 mg/kg |
| COc1cccc(N2C(=O)/C(=C\N(C)C)c3ccccc32)c1 | ED50 | 27.9 mg/kg |
| N=C(c1c(O)n(-c2cccc(Cl)c2)c2ccccc12)C(F)(F)F | ED50 | > 56 mg/kg |
| CCc1cccc(N2C(=O)/C(=C\N(C)C)c3ccccc32)c1 | ED50 | 14.1 mg/kg |
| CN1CCC/C1=C1/C(=O)N(c2cccc(Cl)c2)c2cc(Cl)ccc21 | ED50 | > 100 mg/kg |
| CCN1CCC/C1=C1/C(=O)N(c2cccc(Cl)c2)c2ccccc21 | ED50 | > 100 mg/kg |
| O=C1/C(=C2/CCCN2Cc2ccc(Cl)cc2)c2ccccc2N1c1cccc(Cl)c1 | ED50 | > 100 mg/kg |
| CN(C)/C=C1\C(=O)N(c2ccc(Cl)c(Cl)c2)c2ccccc21 | ED50 | > 100 mg/kg |
| COc1ccc(N2C(=O)/C(=C\N(C)C)c3ccccc32)cc1OC | ED50 | > 100 mg/kg |
| CN(C)/C=C1\C(=O)N(c2cccc(-c3ccccc3)c2)c2ccccc21 | ED50 | > 100 mg/kg |
| CN(C)/C=C1\C(=O)N(c2cccc(Cl)c2)c2ccccc21 | ED50 | 26.1 mg/kg |
| CN(C)C(=O)c1cccc(N2C(=O)/C(=C3/CCCN3C)c3ccccc32)c1 | ED50 | > 100 mg/kg |
| CN1CCC/C1=C1/C(=O)N(c2ccccc2)c2ccccc21 | ED50 | > 100 mg/kg |
| C/N=C\c1c(O)n(-c2cccc(Cl)c2)c2ccccc12 | ED50 | > 100 mg/kg |
| Oc1c(/C=N/Cc2ccccc2)c2ccccc2n1-c1cccc(Cl)c1 | ED50 | > 100 mg/kg |
| CN1CCCC/C1=C1/C(=O)N(c2cccc(Cl)c2)c2ccccc21 | ED50 | > 100 mg/kg |
| Cc1ccccc1N1C(=O)/C(=C\N(C)C)c2ccccc21 | ED50 | 18 mg/kg |
| CN(/C=C1\C(=O)N(c2cccc(Cl)c2)c2ccccc21)c1ccccc1 | ED50 | > 100 mg/kg |
| Cc1ccc(N2C(=O)/C(=C\N(C)C)c3ccccc32)cc1 | ED50 | 56 mg/kg |
| CN1CCC/C1=C1/C(=O)N(c2cccc(Cl)c2)c2ccccc21 | ED50 | > 100 mg/kg |
| COc1ccc(N2C(=O)/C(=C(/C)N(C)C)c3ccccc32)cc1F | ED50 | > 100 mg/kg |
| O=C1/C(=C\N2CCCC2)c2ccccc2N1c1cccc(Cl)c1 | ED50 | > 100 mg/kg |
| CN(C)/C=C1\C(=O)N(c2cccc(Cl)c2)c2cccc(Cl)c21 | ED50 | > 100 mg/kg |
| CN(C)/C=C1\C(=O)N(c2cccc(C(=O)N(C)C)c2)c2ccccc21 | ED50 | > 100 mg/kg |
| CN1CCC/C1=C1/C(=O)N(c2ccccc2)c2cc(Cl)ccc21 | ED50 | > 100 mg/kg |
| CCN(/C=C1\C(=O)N(c2cccc(Cl)c2)c2ccccc21)CC | ED50 | 18 mg/kg |
| COc1ccc(N2C(=O)/C(=C\N(C)C)c3ccccc32)cc1C | ED50 | 9.1 mg/kg |
| COc1ccc(N2C(=O)/C(=C(/C)N(C)C)c3ccccc32)cc1Cl | ED50 | 2.8 mg/kg |
| CN(C)/C=C1\C(=O)N(c2ccccc2Cl)c2ccccc21 | ED50 | > 100 mg/kg |
| CCO/C=C1\C(=O)N(c2cccc(Cl)c2)c2ccccc21 | ED50 | > 100 mg/kg |
| COc1ccc(N2C(=O)/C(=C\N(C)C)c3ccccc32)cc1Cl | ED50 | 7.2 mg/kg |
| CN(C)/C=C1\C(=O)N(c2cccc(Br)c2)c2ccccc21 | ED50 | > 100 mg/kg |
| CN(C)/C=C1\C(=O)N(c2ccccc2)c2cc(Cl)ccc21 | ED50 | > 100 mg/kg |

Just for reference, ChEMBL document CHEMBL1124397 is where these values come from.
